Molecular target: D(1A) dopamine receptor (Homo sapiens)
Assay: Antagonist of Human D 1 Dopamine Receptor: qHTS; also: % is scaled to controls: 0 for no effect and ±100 for the full control effect
Conditions: HEK293 TREx D1 cells, calcium flux, dopamine EC80; at 10 µM; hits give low values
Protocol: Dopamine receptors (DARs) are involved in the etiology and/or therapy of a number of neuropsychiatric and endocrine disorders. […] Freshly passaged cells are plated in 1536 well black, clear bottom plates at a density of 4000 cells/well in 3 ul of complete media containing 1x tetracycline inducer. […] Agonist read: A 10 cycle (1 second/cycle) baseline measurement is taken and then the FDSS online 1536 pintool delivers 23 nl of compound library (as well as dopamine controls) to the plate. […]
The campaign covered roughly 360,000 compounds. About 11,000 (3.1%) were called active. This excerpt belongs to a sample that is enriched for actives.
List of activity change, negative = inhibition values.
Field format: number, assumed %, no unit text.

Clc1cccc(-n2ncc3c(NCCc4ccccc4)ncnc32)c1    -27.8
Fc1cccc(-n2ncc3c2ncn2nc(-c4ccccc4Cl)nc32)c1    -8.03
O=c1c(NCc2cccs2)nccn1-c1ccccc1    -12.1

# next molecule below
Known value: D(1A) dopamine receptor (Homo sapiens) activity change, negative = inhibition of the molecule `O=S(=O)(c1ccc2nc(NCc3ccccc3Cl)ccc2c1)N1CCCCC1` equals 7.22
